Examples of sequences with documented phosphorylation enrichment follow.
Tested on: Fer (mouse);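 also: 11-residue human phosphosite peptides and single-mutation variants displayed on the E. coli surface, counted by deep sequencing, each peptide's frequency after selection divided by its frequency in the unselected input library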;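 also: frequency after pTyr selection over input frequency; kinase dosed for 20-30% of maximal phosphorylation in three min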
assay_text: phosphorylation enrichment, bacterial display (enrichment ratio); higher = better substrate or ligand; peptides without Tyr show the background
I'd appreciate a reply containing only the number, no unit.

Here's what some known entries look like.
PYADPYYDYEI [ZC3H18_Y371] : 6.03
KGEDFYYVTCH [FHL1_Y149_C150Y] : 0.71
ILILKYPIEHG [ACTA1_Y71_T68I] : 0.694
FQEKGYNKEPR [CHRND_Y38_L42P] : 0.571
FRDALYKFIVD [PHEX_Y250_M253I_YF] : 0.479

Give its phosphorylation enrichment value. Item: SIDLGYHKDLQ [NF1_Y1169_G1166D]
0.503

Let us now turn to TCRPPYFHRNC [HGD_Y333_F329C_YF]
0.334

Let us now turn to ENGPYYTSYPP [GDAP2_Y488]
0.707

Let us now turn to NAGAFYALSTL [FLVCR2_Y325]
3.19

Let us now turn to KIMVIYDGACQ [VWDE_Y1035_T1032M]
0.897

Let us now turn to IPTPAYQSLPA [PDCD6IP_Y727_S730L]
0.341

Let us now turn to HNVPIYEGFGL [ACTA1_Y168_A172G_YF]
18.8

Let us now turn to RWQQLYDTLNA [EIF3M_Y351_Q346R]
3.35

Let us now turn to CDLTDYLMKIL [ACTA1_Y190_R185C]
0.541

Let us now turn to CSGNCYLDIRP [FBN1_Y1535_R1530C]
0.404

Data credit: the supplement of paper PMC10065799
